Exercise: for every item that follows, state its recorded %Inh.
- Test system: PIP5K2B
- experimental-context: concentration: 1 μM,replicates: in singlicate; n = 1;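 further: KINOMEscan kinase panel screen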
Give your result in % as a bare value.

stdin: What %Inh value was documented for this molecule, CCn1c(-c2nonc2N)nc2c(C#CC(C)(C)O)nc(OCCN)cc21.Cl.Cl [GSK902056] ?
stdout: 9

stdin: Would you mind telling me what %Inh value was observed for C[C@@H]1CCN(C(=O)CC#N)C[C@@H]1N(C)c1ncnc2[nH]ccc12 ?
stdout: 0

stdin: What does the record list as %Inh for Cl.Cl.NC[C@H](Cc1ccc(C(F)(F)F)cc1)NC(=O)c1cc(Br)c(-c2ccnc3[nH]ccc23)s1 [GSK1487252] ?
stdout: 39

stdin: Form field: reported %Inh of CN(C)CCOc1ccc(-c2cc(-c3c[nH]nc3-c3ccccn3)ccn2)cc1 [GW835314]
stdout: 26

---

Answer each item with its documented %Inh.
- System: YES
- Construct: gene YES1
- experimental-context: concentration: 1 μM,replicates: in singlicate; n = 1
State just the number; it will be interpreted in %.

stdin: Can you share its %Inh? I mean this compound: Cc1ccc(-n2nc(C(C)(C)C)cc2NC(=O)Nc2ccc(OCCN3CCOCC3)c3ccccc23)cc1 [GW839464]
stdout: 32

stdin: Param item = O=C(NCCCN1CCOC1=O)c1cnc(NCc2cc(Cl)ccc2Cl)nc1NC1CCCC1 ; retrieve measured %Inh.
stdout: 31

stdin: Any idea what its %Inh is? The compound is Cl.Cl.NC[C@H](Cc1ccc(C(F)(F)F)cc1)NC(=O)c1cc(Br)c(-c2ccnc3[nH]ccc23)s1 [GSK1487252]
stdout: 19

stdin: Need %Inh of CCN(CC)CCOc1ccc(Nc2ncc3cc(-c4c(Cl)cccc4Cl)c(=O)n(C)c3n2)cc1 [SB-601273] , thanks.
stdout: 100

stdin: Fill in: %Inh of C[C@@H](Oc1cc(-c2cnn(C3CCNCC3)c2)cnc1N)c1c(Cl)ccc(F)c1Cl is ___
stdout: 17

stdin: Data request, read-out %Inh, for Cc1cc2cn[nH]c2cc1-c1cccc2c(N)c(C(N)=O)nnc12
stdout: 0

stdin: Reported %Inh for CCN(CC)CCCCNc1ncc2cc(-c3c(Cl)cccc3Cl)c(NC(=O)NC(C)(C)C)nc2n1 : what is it?
stdout: 94.6

stdin: Tell me the measured %Inh of Cl.Oc1cc(-c2nc(-c3ccccc3)[nH]c2-c2ccncc2)ccc1Cl [SB-386023] , please.
stdout: 31

stdin: What does the record list as %Inh for Cc1ccc2c(-c3ccncc3)c(-c3ccc(F)cc3)nn2c1.Cl [GW461484] ?
stdout: 0

stdin: Entry Cc1cc(C(=O)Nc2ccc(Oc3ccc4nc(NC(=O)C5CC5)cn4n3)cc2)nn1-c1ccccc1 : reported %Inh = ?
stdout: 25

stdin: Request the reported %Inh associated with C=CC(=O)Nc1cc2c(Nc3ccc(F)c(Cl)c3)ncnc2cc1OCCCN1CCOCC1 [GW781483]
stdout: 15

stdin: Please look up its %Inh: CC(C)N1C(=O)Cc2cc(Nc3ncc(C(F)(F)F)c(NCc4cccc(S(C)(=O)=O)c4)n3)ccc21
stdout: 9

stdin: // lookup %Inh for O=C(NCCNc1ccnc(NCc2ccc(F)cc2)n1)c1cc2ccccc2s1 [GSK1379944]
stdout: 11

stdin: Look up %Inh for this compound: C[C@@H]1CCN(C(=O)CC#N)C[C@@H]1N(C)c1ncnc2[nH]ccc12
stdout: 0

stdin: Look at this compound and give its reported %Inh. Cl.Cl.Nc1nc(-c2ccc3c(N)n[nH]c3c2)cc(N2CCCC(NC(=O)c3ccccc3)C2)n1 (stereo not drawn) [GSK2286775]
stdout: 14
